- Species: Homo sapiens
- Assay info: Displacement of [3H]2-BFI from imidazoline I2 receptor in post-mortem human brain frontal cortex membrane assessed as occupancy at high affinity site measured after 45 mins by liquid scintillation counting spectrometry
Readout kind: Activity (%)
Report the value in % with no unit label.

Activity for Cl.Cn1ccnc1-c1cc2ccccc2o1 ?
38

Given COc1ccc2cc(-c3ncc[nH]3)oc2c1.Cl , state its recorded Activity.
46

Activity lookup needed for Cl.Oc1ccc2oc(-c3ncc[nH]3)cc2c1 , thanks.
29
